Biological target: Elastase (Pseudomonas aeruginosa (strain ATCC 15692 / PAO1 / 1C / PRS 101 / LMG12228))
Sequence (P14756 whole entry): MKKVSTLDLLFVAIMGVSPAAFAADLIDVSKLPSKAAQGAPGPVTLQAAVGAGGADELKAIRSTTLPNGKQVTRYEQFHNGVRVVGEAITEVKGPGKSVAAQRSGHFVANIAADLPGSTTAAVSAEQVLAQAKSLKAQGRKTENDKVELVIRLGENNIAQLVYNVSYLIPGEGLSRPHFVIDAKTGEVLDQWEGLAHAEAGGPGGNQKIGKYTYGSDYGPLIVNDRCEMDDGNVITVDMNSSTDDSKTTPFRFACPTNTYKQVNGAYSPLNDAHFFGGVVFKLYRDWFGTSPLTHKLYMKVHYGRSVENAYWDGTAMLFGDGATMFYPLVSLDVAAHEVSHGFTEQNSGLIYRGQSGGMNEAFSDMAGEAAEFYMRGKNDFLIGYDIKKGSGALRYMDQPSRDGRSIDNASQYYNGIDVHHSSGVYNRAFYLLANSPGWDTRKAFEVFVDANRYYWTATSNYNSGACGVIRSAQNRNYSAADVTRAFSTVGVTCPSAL
Assay: Inhibition of Pseudomonas aeruginosa LasB by fluorimetric assay in buffer of pH 7.2
Settings: read-out: Ki
MEASURED ATTRIBUTE: Ki (µM)
The reply should be a number in µM, with the unit left off.

CC[C@@H](C)[C@H](NC(=O)CS)C(=O)N[C@@H](CC(C)C)C(N)=O	1.3
CC(C)C[C@H](NC(=O)CNC(=O)CS)C(N)=O	138
CC(C)C[C@H](NC(=O)CS)C(=O)N[C@@H](CCCCN)C(N)=O	14
NC(=O)[C@H](Cc1c[nH]c2ccccc12)NC(=O)[C@H](CC(=O)O)NC(=O)CS	207
CC(C)C[C@H](NC(=O)[C@H](Cc1ccc(O)cc1)NC(=O)CS)C(N)=O	33

Data request: What Ki value was documented for this molecule, CC(C)[C@H](NC(=O)[C@H](Cc1c[nH]cn1)NC(=O)CS)C(N)=O ?
Data returned: 47

Data request: Which measured Ki value corresponds to NC(=O)[C@H](Cc1ccccc1)NC(=O)[C@H](CCCN=C(N)N)NC(=O)CS ?
Data returned: 224

Data request: Ki lookup needed for C[C@H](NC(=O)CS)C(=O)N[C@@H](CCCCN)C(N)=O , thanks.
Data returned: 153

Data request: Query: Ki; subject: NCCCC[C@H](NC(=O)[C@H](CC(=O)O)NC(=O)CS)C(N)=O
Data returned: 491

Data request: # query: Ki of entry CC(C)C[C@H](NC(=O)[C@H](Cc1c[nH]c2ccccc12)NC(=O)CS)C(N)=O
Data returned: 3.7

Data request: What value of measured Ki is listed for CC(C)[C@H](NC(=O)[C@H](Cc1c[nH]c2ccccc12)NC(=O)CS)C(N)=O ?
Data returned: 4.1

Data request: Could you tell me which Ki is on file for NC(=O)CC[C@H](NC(=O)CS)C(=O)N[C@@H](CCCN=C(N)N)C(N)=O ?
Data returned: 217
